The reader will find reported remaining activity at 10 µM values listed item by item below.
TARGET_SYSTEM: T1, CDKs and other kinases (Homo sapiens, UniProt P24941)
T1 construct: other: CDK2A; residual activity (%) at 10 μM CDK2A; compound at 10 μM
TEST: Radiometric kinase assay (Eurofins Pharma Discovery or Reaction Biology Corporation Kinase Profiler)
Type: biochemical
EXPERIMENTAL_CONDITIONS: CDK2A; compound at 10 μM; read-out: residual activity (%) at 10 μM CDK2A
Procedure: Eurofins Pharma Discovery or Reaction Biology Corporation Kinase Profiler services were used to measure inhibition of CDKs and other kinases by radiometric assay. Inhibition of CDK4/D1, CDK6/D3 and CDK9/T1 were also determined in-house using ADP Glo Kinase assays (Promega Corporation, Madison, USA). […] Luminescence was measured using an EnVision Multilabel plate reader (PerkinElmer, Buckinghamshire, UK). […]
Return type: number; implicit unit %.

COMPOUND	TARGET_SYSTEM	PROPERTY_NAME	RECORDED_MEASUREMENT
Cc1cnc(N[C@H]2CC[C@H](O)CC2)nc1-c1cnc2ccc(Nc3cccnc3)cn12 [Compound 106]	T1, CDKs and other kinases (Homo sapiens, UniProt P24941)	remaining activity at 10 µM	2
N[C@H]1CC[C@H](Nc2ncc(F)c(-c3cnc4ccc(-c5ccc(C(=O)N6CCNCC6)cc5)cn34)n2)CC1 [Compound 117]	T1, CDKs and other kinases (Homo sapiens, UniProt P24941)	remaining activity at 10 µM	4

Now let's try a different one.
I'd like to know its remaining activity at 10 µM. The compound in question is Cc1cnc(N[C@H]2CC[C@H](N)CC2)nc1-c1cnc2ccc(-c3ncccc3F)cn12 [Compound 30]
49

* * *

TARGET_SYSTEM: CDK4/D1 (Homo sapiens)
Sequence (P11802 whole entry): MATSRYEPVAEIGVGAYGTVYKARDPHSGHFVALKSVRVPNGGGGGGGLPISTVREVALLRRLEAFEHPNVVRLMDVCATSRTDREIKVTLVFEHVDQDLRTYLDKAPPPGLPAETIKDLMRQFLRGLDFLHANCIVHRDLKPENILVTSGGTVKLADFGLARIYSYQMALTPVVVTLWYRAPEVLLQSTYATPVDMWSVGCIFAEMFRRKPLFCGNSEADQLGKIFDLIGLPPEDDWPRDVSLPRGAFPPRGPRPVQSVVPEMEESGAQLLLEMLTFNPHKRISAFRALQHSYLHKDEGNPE
Sequence (P24385 whole entry partner): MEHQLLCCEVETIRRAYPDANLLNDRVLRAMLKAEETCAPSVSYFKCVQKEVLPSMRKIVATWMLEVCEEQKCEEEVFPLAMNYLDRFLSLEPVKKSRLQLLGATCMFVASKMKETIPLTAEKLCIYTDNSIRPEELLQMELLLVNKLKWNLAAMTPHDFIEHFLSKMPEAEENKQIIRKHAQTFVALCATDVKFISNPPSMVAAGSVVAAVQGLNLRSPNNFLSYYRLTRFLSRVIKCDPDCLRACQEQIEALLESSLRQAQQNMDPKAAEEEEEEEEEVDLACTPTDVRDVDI
TEST: ADP Glo Kinase assay CDK4/D1
Type: biochemical
EXPERIMENTAL_CONDITIONS: CDK4D1; read-out: CDK inhibition, Ki (μM) CDK4D1
Description: Eurofins Pharma Discovery or Reaction Biology Corporation Kinase Profiler services were used to measure inhibition of CDKs and other kinases by radiometric assay. Inhibition of CDK4/D1, CDK6/D3 and CDK9/T1 were also determined in-house using ADP Glo Kinase assays (Promega Corporation, Madison, USA). […] Luminescence was measured using an EnVision Multilabel plate reader (PerkinElmer, Buckinghamshire, UK). […]
PROPERTY_NAME: Ki

COMPOUND	Ki
COc1ccc(-c2ccc3ncc(-c4nc(N[C@H]5CC[C@H](N)CC5)ncc4Cl)n3c2)cn1	1.58 µM
CNC1CCC(Nc2ncc(C)c(-c3cnc4ccc(Nc5cncnc5)cn34)n2)CC1 (stereo not shown)	0.94 µM
Cc1cnc(N[C@H]2CC[C@H](N)CC2)nc1-c1cnc2ccc(-c3ccccc3)cn12	2.62 µM
CN1CCC(Nc2ncc(F)c(-c3cnc4ccccn34)n2)CC1	0.004 µM

I'd like to know its Ki. The compound in question is Cc1cnc(NC2CCC(N(C)C)CC2)nc1-c1cnc2ccc(Nc3cccnc3)cn12 (stereo not shown)
0.78 µM

I'd like to know its Ki. The compound in question is "N[C@H]1CC[C@H](Nc2ncc(Cl)c(-c3cnc4ccc(-c5cccnc5)cn34)n2)CC1"
0.79 µM

I'd like to know its Ki. The compound in question is "Cc1cnc(N[C@H]2CC[C@H](N)CC2)nc1-c1cnc2ccc(Nc3cccnc3)cn12"
2.8 µM

I'd like to know its Ki. The compound in question is "Cc1cnc(N[C@H]2CC[C@H](N)CC2)nc1-c1cnc2ccc(Nc3cncnc3)cn12"
1.24 µM

I'd like to know its Ki. The compound in question is Cc1cnc(NC2CCC(N(C)C)CC2)nc1-c1cnc2ccc(Nc3cncnc3)cn12 (stereo not shown)
1.16 µM

I'd like to know its Ki. The compound in question is "Cc1cnc(N[C@H]2CC[C@H](N3CC3)CC2)nc1-c1cnc2cc(Nc3cncnc3)ccn12"
0.64 µM
